# applied-conditions: Table 3
Structures can show the parent of a compound that is named as a salt.
Mark rule not met for OD400 values under 0.06, and rule met for everything at or above.

# compound, class
rows = [
    ("CNC(=O)c1cccnc1 [#1283, N-Methyl- nicotinamide]", "rule met"),
    ("CN(C)CCSC(=N)N [#0830, dihydrochloride]", "rule not met"),
    ("CCCC[n+]1ccccc1.[Cl-] [#0415, 1-Butyl-pyridinium chloride]", "rule not met"),
    ("CNC(=S)NC", "rule not met"),
    ("OCCNCc1ccccc1", "rule met"),
    ("NCCN1CCNCC1", "rule met"),
    ("[O-][n+]1ccccc1 [#1078, Pyridine N- oxide]", "rule not met"),
]

* * *

# test: Refractive index of high-concentration aqueous solution
# Format: physicochemical
# applied-conditions: Table 3; chemical conc. 70 wt %
assay-endpoint: RI

# compound, assay-endpoint, value-observed
records = [
    ("CN(C)C(=O)Oc1cccc([N+](C)(C)C)c1 [#0864, Neostigmine bromide]", "RI", 1.4830),
    ("CNC(=O)c1cccnc1 [#1283, N-Methyl- nicotinamide]", "RI", 1.4902),
    ("C[N+](C)(Cc1ccccc1)c1ccccc1.[Cl-] [#0450]", "RI", 1.5002),
]

* * *

# applied-conditions: […]
assay-endpoint: pH

# molecule, value-observed
rows = [
    ("CCCCCCCCCCCCOS(=O)(=O)[O-].[Na+] [#1035, Sodium dodecyl sulfate]", 6.3),
    ("OCCN(CCO)CCN(CCO)CCO", 11.7),
    ("NCCCNCCNCCCN", 13.1),
    ("C[C@H](CCC(=O)[O-])[C@H]1CC[C@H]2[C@@H]3CC[C@@H]4C[C@H](O)CC[C@]4(C)[C@H]3C[C@H](O)[C@]12C.[Na+] [#0562, Sodium deoxycholate]", 8.3),
    ("NCc1cccnc1", 11.6),
    ("NCC1CCOCC1 [#0467, 4-Aminomethyl-tetrahydropyran]", 12.9),
    ("CCN(CC)CCN", 13.6),
    ("NCCCn1ccnc1", 12.9),
    ("CCCCN(CCO)CCO", 12.7),
    ("CC1(C)CC(N)CC(C)(CN)C1 (stereo not shown)", 10.8),
    ("NCCCCN", 14.0),
    ("NC(=O)c1cccnc1 [#0855, nicotinamide]", 10.4),
    ("CC(CN)CCCN (stereo not shown)", 12.9),
    ("OCCCCCBr", 2.9),
    ("OCCNCc1ccccc1", 10.9),
    ("NCCCCCO", 12.5),
    ("Cc1cccc(C)n1", 9.9),
    ("CCCCCCCCCCCC[N+](C)(C)CCCS(=O)(=O)[O-]", 8.4),
    ("CCC(N)CCN (stereo not shown)", 13.6),
    ("CNC(=O)c1cccnc1 [#1283, N-Methyl- nicotinamide]", 10.7),
    ("NCCCOCCCN", 13.2),
    ("C[C@H](CCC(=O)[O-])[C@H]1CC[C@H]2[C@@H]3CC[C@@H]4C[C@H](O)CC[C@]4(C)[C@H]3C[C@H](O)[C@]12C.[Na+] [#1507, Sodium deoxycholate]", 7.9),
    ("c1cnccn1", 8.6),
    ("NCC1CCCC(CN)C1 (stereo not shown)", 13.0),
    ("CC(C)NCCCN", 13.4),
    ("CCn1ccnc1", 12.1),
    ("CN(C)C(=N)N(C)C", 12.4),
    ("NCCCCCCO", 11.9),
    ("NCCCCO", 12.3),
    ("CN(C)C(=O)c1ccccc1 [#0788, N,N- Dimethyl- benzamide]", 10.7),
    ("NCC(O)CN", 12.8),
    ("CC(O)CN(CCN(CC(C)O)CC(C)O)CCN(CC(C)O)CC(C)O (stereo not shown)", 13.2),
    ("NCC1CCC(CN)CC1 (stereo not shown)", 13.3),
    ("c1cnc(N2CCNCC2)nc1", 12.5),
    ("Cc1ccnc(C)c1", 7.6),
    ("COc1ccc(CO)cc1OC", 6.1),
    ("C[N+](C)(C)Cc1ccccc1.[OH-] [#0387, Benzyltrimethyl- ammonium Hydroxide]", 13.8),
    ("CC(=O)O.CCCCCCCCCCCCN [#0627, Dodecylamine acetate]", 10.3),
    ("OCCCC1CCN(CCO)CC1", 14.1),
    ("CCCCCCCCCCCC[n+]1ccccc1.[Cl-] [#0635, 1-Dodecylpyridinium chloride]", 8.9),
]

* * *

Measured 400 nm by item
# applied-conditions: OD at 400 nm of the chemical

# compound, 400 nm
data = [
    ("CCCCCCCCCCCC[N+](C)(C)CCCS(=O)(=O)[O-] [#0694]", 0.055),
    ("C[C@H](CCC(=O)[O-])[C@H]1CC[C@H]2[C@@H]3CC[C@@H]4C[C@H](O)CC[C@]4(C)[C@H]3C[C@H](O)[C@]12C.[Na+] [#1507, Sodium deoxycholate]", 0.054),
    ("CC1(C)CC(N)CC(C)(CN)C1 (stereo not shown) [#1602, Isophoronediamine]", 0.051),
    ("Cc1cccc(C)n1 [#1008, 2,6-Lutidine]", 0.063),
    ("NCC(O)CN [#1062]", 0.054),
    ("CCCCCCCCCCCC[n+]1ccccc1.[Cl-] [#0635, 1-Dodecylpyridinium chloride]", 0.053),
    ("Cc1ccnc(C)c1 [#1312, 2,4-Lutidine]", 0.051),
    ("CCn1ccnc1 [#0938, 1-ethylimidazole]", 0.053),
    ("NCc1cccnc1 [#1102, 3-Picolylamine]", 0.056),
    ("NCCCCO [#0006]", 0.06),
    ("CCN(CC)CCN [#0779, N,N-Diethyl-ethylenediamine]", 0.051),
    ("OCCNCc1ccccc1 [#0389, N-Benzyl- ethanolamine]", 0.063),
    ("CCCCN(CCO)CCO [#0414, N-Butyldiethanolamine]", 0.05),
    ("CC(C)NCCCN [#1027, N-Isopropyl-1,3-diaminopropane]", 0.061),
    ("C[C@H](CCC(=O)[O-])[C@H]1CC[C@H]2[C@@H]3CC[C@@H]4C[C@H](O)CC[C@]4(C)[C@H]3C[C@H](O)[C@]12C.[Na+] [#0562, Sodium deoxycholate]", 0.054),
    ("NCC1CCOCC1 [#0467, 4-Aminomethyl-tetrahydropyran]", 0.049),
    ("c1cnc(N2CCNCC2)nc1 [#1167, 1-(2-Pyrimidyl) piperazine]", 0.084),
    ("CN(C)C(=N)N(C)C [#1444, 1,1,3,3-Tetramethylguanidine]", 0.072),
    ("NCCCNCCNCCCN [#0277, N,N′-Bis(3-aminopropyl) ethylenediamine]", 0.053),
    ("NCCCCN [#0783]", 0.05),
    ("COc1ccc(CO)cc1OC [#1422, Veratryl alcohol]", 0.05),
    ("c1cnccn1 [#1086]", 0.051),
    ("C[N+](C)(C)Cc1ccccc1.[OH-] [#0387, Benzyltrimethyl- ammonium Hydroxide]", 0.054),
    ("NCC1CCC(CN)CC1 (stereo not shown) [#0071, 1,4-Bis(aminomethyl) cyclohexane]", 0.054),
    ("CCC(N)CCN (stereo not shown) [#0678]", 0.049),
    ("NCCCOCCCN [#0394, Bis(3-aminopropyl) ether]", 0.067),
    ("NCCCCCO [#0003]", 0.052),
    ("NC(=O)c1cccnc1 [#0855, nicotinamide]", 0.052),
    ("NCC1CCCC(CN)C1 (stereo not shown) [#0070, 1,3-Bis(aminomethyl) cyclohexane]", 0.079),
    ("CN(C)C(=O)c1ccccc1 [#0788, N,N- Dimethyl- benzamide]", 0.049),
    ("NCCCn1ccnc1 [#0484, 1-(3-aminopropyl)imidazole]", 0.05),
    ("CNC(=O)c1cccnc1 [#1283, N-Methyl- nicotinamide]", 0.063),
    ("NCCCCCCO [#0007, 6-Amino-1-hexanol]", 0.093),
    ("OCCCC1CCN(CCO)CC1 [#1226]", 0.05),
    ("OCCCCCBr [#1367]", 0.055),
    ("CC(=O)O.CCCCCCCCCCCCN [#0627, Dodecylamine acetate]", 0.053),
    ("OCCN(CCO)CCN(CCO)CCO [#1537]", 0.048),
    ("CCCCCCCCCCCCOS(=O)(=O)[O-].[Na+] [#1035, Sodium dodecyl sulfate]", 0.048),
    ("CC(CN)CCCN (stereo not shown) [#1267, 2-Methyl-1,5-diaminopentane]", 0.08),
    ("CC(O)CN(CCN(CC(C)O)CC(C)O)CCN(CC(C)O)CC(C)O (stereo not shown) [#1105]", 0.057),
]
